- assayed_target: C5AR1 (Homo sapiens, UniProt P21730)
- Sequence (P21730 1-350): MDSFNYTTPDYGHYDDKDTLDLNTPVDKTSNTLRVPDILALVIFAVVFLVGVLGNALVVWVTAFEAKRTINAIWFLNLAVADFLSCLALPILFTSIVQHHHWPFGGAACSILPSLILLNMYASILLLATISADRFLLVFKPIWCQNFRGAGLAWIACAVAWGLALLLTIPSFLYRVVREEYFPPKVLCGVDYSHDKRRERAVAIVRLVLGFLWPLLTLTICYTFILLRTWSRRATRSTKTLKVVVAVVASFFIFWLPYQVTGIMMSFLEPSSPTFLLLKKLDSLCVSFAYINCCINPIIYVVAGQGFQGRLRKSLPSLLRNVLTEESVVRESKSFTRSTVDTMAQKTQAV
- assay_info: In vitro assay: antagonism of C5a-induced beta-arrestin recruitment (PathHunter) in CHO-K1 C5AR1 beta-arrestin cell line
- condition_notes: antagonistic activity, 1-10 nM C5a agonist, geometric mean where several measurements, read-out: C5aR IC50
The following molecules are shown together with reported IC50 values.
Use nM as the unit, but write only the number.

- Cc1cccc(F)c1N1CCC(N2Cc3cn(CC#N)nc3N(Cc3ccccc3C(F)(F)F)C2=O)CC1: 15
- Cc1cccc(F)c1N1CCC(N2Cc3cn(CC(O)CO)nc3N(Cc3ccccc3C(F)(F)F)C2=O)CC1 (stereo not shown): 27
- Cc1nnc(N2CC(n3cc4c(n3)N(Cc3ccccc3C(F)(F)F)C(=O)N(C3CCN(c5c(C)cccc5F)CC3)C4)C2)o1: 32

## Task Query (molecule): Cc1cccc(F)c1N1CCC(N2Cc3nn(CC(C)(F)F)cc3N(Cc3ccccc3C(F)(F)F)C2=O)CC1 ; field requested: IC50
## Result 13

## Task Now consider Cc1cccc(F)c1N1CCCC(N2Cc3cn(C)nc3N(Cc3ccccc3C(F)(F)F)C2=O)C1 (single isomer, unassigned) [Example 242] and answer again.
## Result 628

## Task Also Cc1cccc(F)c1N1CCC(N2C(=O)N(Cc3ccccc3C(F)(F)F)c3cn(C)nc3C2C)CC1 (single isomer, unassigned) [Example 202] , if possible.
## Result 919

====

- assayed_target: C5AR1 (Homo sapiens, UniProt P21730)
- assay_info: In vitro assay: antagonism of C5a-induced beta-arrestin recruitment (PathHunter) in CHO-K1 C5AR1 beta-arrestin cell line
- condition_notes: antagonistic activity, 1-10 nM C5a agonist, geometric mean where several measurements, read-out: C5aR IC50
pIC50: −log10 of the molar value.
Tick Y if pIC50 is 8 or greater. Tick N if pIC50 is less than 8.

- CC1c2cn(C)nc2N(Cc2ccccc2C(F)(F)F)C(=O)N1C1CCN(c2c(F)cccc2Cl)CC1 (single isomer, unassigned) [Example 319]: Y
- Cn1cc2c(n1)CN(C1CCN(c3c(F)cccc3C(F)(F)F)CC1)C(=O)N2Cc1ccccc1C(F)(F)F [Example 271]: N
- COc1cccc(C)c1N1CCC(N2Cc3cn(C)nc3N(Cc3ccccc3C(F)(F)F)C2=O)CC1 [Example 48]: N
- Cc1cccc(F)c1N1CCC(N2Cc3cn(C4CN(C(=O)OC(C)(C)C)C4)nc3N(Cc3ccccc3C(F)(F)F)C2=O)CC1 [Example 91]: N

## Task State whether the measured pIC50 reaches 8, counting equality as reaching it, for COc1nccc(C)c1N1CCC(N2Cc3cn(C4CC4)nc3N(Cc3ccccc3C(F)(F)F)C2=O)CC1 [Example 209]
## Result Y

====

- assayed_target: UniProt P21730
- Sequence (P21730 1-350): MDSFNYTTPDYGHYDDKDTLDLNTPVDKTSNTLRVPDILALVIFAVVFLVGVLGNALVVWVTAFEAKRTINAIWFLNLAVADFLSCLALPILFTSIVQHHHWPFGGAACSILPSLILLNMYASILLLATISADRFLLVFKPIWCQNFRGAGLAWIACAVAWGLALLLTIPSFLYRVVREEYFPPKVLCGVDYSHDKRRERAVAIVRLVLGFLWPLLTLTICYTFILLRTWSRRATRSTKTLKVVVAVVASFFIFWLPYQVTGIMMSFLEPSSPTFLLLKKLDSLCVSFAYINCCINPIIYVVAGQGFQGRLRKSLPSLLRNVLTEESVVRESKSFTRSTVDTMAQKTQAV
- assay_info: In vitro assay: antagonism of C5a-induced beta-arrestin recruitment (PathHunter) in CHO-K1 C5AR1 beta-arrestin cell line
- condition_notes: antagonistic activity, 1-10 nM C5a agonist, geometric mean where several measurements, read-out: C5aR IC50
Form field: IC50 (one value per entry).
# number then unit; no other words

• Cc1cccc(F)c1N1CC[C@@H](N2Cc3cn(C)nc3N(Cc3ccccc3C(F)(F)F)C2=O)C1 [Example 55] = 11 nM

## Task Which IC50 is listed for Cc1cccc(F)c1N1CCC(N2C(=O)N(Cc3ccccc3C(F)(F)F)c3cn(C)nc3C2C)CC1 (single isomer, unassigned) [Example 203] ?
## Result 74 nM

## Task Entry Cc1cccc(F)c1N1CCC(N2Cc3cn(C(=O)N(C)CC(C)C)nc3N(Cc3ccccc3C(F)(F)F)C2=O)CC1 [Example 150] please
## Result 767 nM

## Task Now give it for Cc1cccc(F)c1N1CCC(N2Cc3cn(CC(C)(C)NS(=O)(=O)c4ccccc4[N+](=O)[O-])nc3N(Cc3ccccc3C(F)(F)F)C2=O)CC1 [Example 110] too.
## Result 28 nM

## Task For Cc1cccc(F)c1N1CCC(N2Cc3cn(CC4(C)CC4)nc3N(Cc3ccccc3C(F)(F)F)C2=O)CC1 [Example 158] then?
## Result 11 nM

## Task Moving on to the next molecule: Cc1cccc(F)c1N1CCC(N2C(=O)N(Cc3ccccc3C3CC3)c3cn(C4CC4)nc3C2C)CC1 (single isomer, unassigned) [Example 279]
## Result 28 nM

## Task Quick one: CC1c2cn(C3CCCCO3)nc2N(Cc2ccccc2C(F)(F)F)C(=O)N1C1CCN(c2c(F)cccc2C(F)F)CC1 (stereo not shown) [Example 341]
## Result 31 nM

## Task Follow-up item: Cc1cccc(F)c1N1CCCC(N2Cc3cn(C)nc3N(Cc3ccccc3C(F)(F)F)C2=O)CC1 (single isomer, unassigned) [Example 226]
## Result 24 nM

## Task # repeat for COc1nccc(C(F)(F)F)c1N1CCC(N2C(=O)N(Cc3ccccc3C3CC3)c3nn(C)cc3C2C)CC1 (single isomer, unassigned) [Example 374]
## Result 8 nM

## Task Also need Cn1cc2c(n1)N(Cc1ccccc1C(F)(F)F)C(=O)N(C1CCN(c3c(F)cccc3C3CC3)CC1)C2 [Example 303] , thanks.
## Result 10 nM

## Task Cool, now CC(=O)NCCn1cc2c(n1)N(Cc1ccccc1C(F)(F)F)C(=O)N(C1CCN(c3c(C)cccc3F)CC1)C2 [Example 66]
## Result 152 nM

## Task Ok, now Cc1cccc(F)c1N1CCC(N2Cc3cn(C4CN(C(=O)N(C)C)C4)nc3N(Cc3ccccc3C(F)(F)F)C2=O)CC1 [Example 119]
## Result 296 nM

## Task // same read-out, input: Cc1cccc(F)c1N1CCC(N2Cc3c(ncn3C)N(Cc3ccccc3C(F)(F)F)C2=O)CC1 [Example 16]
## Result 74 nM

====

# maps each entry to its IC50
- assayed_target: C5AR1 (Homo sapiens, UniProt P21730)
- Construct: host or cells: CHO-K1
- assay_info: In vitro assay: antagonism of C5a-induced beta-arrestin recruitment (PathHunter) in CHO-K1 C5AR1 beta-arrestin cell line
- Assay type: cell-based
- condition_notes: antagonistic activity, 1-10 nM C5a agonist, geometric mean where several measurements, read-out: C5aR IC50
// return numeric value only (unit: nM, not printed)

• Cc1cccc(F)c1N1CCC(N2Cc3cn(C[C@H]4CCN4)nc3N(Cc3ccccc3C(F)(F)F)C2=O)CC1 = 390
• Cc1cccc(F)c1N1CCC(C)(N2Cc3cn(C)nc3N(Cc3ccccc3C(F)(F)F)C2=O)CC1 = 11
• Cc1cccnc1N1CCC(N2Cc3cn(C)nc3N(Cc3ccccc3C(F)(F)F)C2=O)CC1 = 38
• COc1nccc(C(F)(F)F)c1N1CCC(N2C(=O)N(Cc3ccccc3C3CC3)c3nn(C)cc3C2C)CC1 (single isomer, unassigned) [Example 375] = 146

Here is the next item to consider.
## Task Item: Cc1cccc(F)c1N1CCC(N2Cc3cn(CCN(C)C(C)C)nc3N(Cc3ccccc3C(F)(F)F)C2=O)CC1 Test system: C5AR1 (Homo sapiens, UniProt P21730) Read-out: IC50 Value: ?
## Result 43

====

- assayed_target: C5AR1 (Homo sapiens)
- assay_info: In vitro assay: antagonism of C5a-induced beta-arrestin recruitment (PathHunter) in CHO-K1 C5AR1 beta-arrestin cell line
- condition_notes: antagonistic activity, 1-10 nM C5a agonist, geometric mean where several measurements, read-out: C5aR IC50
property: log10(IC50) (log10 of the value in nM)
Field: value | Transform: log10 | Quantity: IC50 | Unit: nM

As a guide, the following entries are already answered.
* Cc1cccc(F)c1N1CCC(N2Cc3cn(CC(C)(C)NS(=O)(=O)c4ccc(Cl)cc4)nc3N(Cc3ccccc3C(F)(F)F)C2=O)CC1 [Example 101] | 1.34
* Cc1nc2c(s1)N(Cc1ccccc1C(F)(F)F)C(=O)N(C1CCN(c3c(C)cccc3F)CC1)C2 [Example 90] | 2.18
* Cc1cccc(F)c1N1CCC(N2C(=O)N(Cc3ccccc3C3CC3)c3nn(C)cc3C2C)CC1 (single isomer, unassigned) [Example 317] | 1.04
* Cc1cccc(F)c1N1CCC(N2Cc3cn(C(C)C#N)nc3N(Cc3ccccc3C(F)(F)F)C2=O)CC1 (stereo not shown) [Example 78] | 1.15

## Task Param item = Cc1cccc(F)c1N1CCC(N2Cc3cn(C)nc3N(C(C)c3ccccc3C(F)(F)F)C2=O)CC1 (single isomer, unassigned) [Example 247] ; retrieve measured log10(IC50).
## Result 1.32

## Task For Cc1cccc(F)c1N1CCC(N2Cc3cn(C(=O)N(C)C)nc3N(Cc3ccccc3C(F)(F)F)C2=O)CC1 [Example 149] then?
## Result 1.85

## Task And what about the compound CC(=O)N1CCC(n2cc3c(n2)N(Cc2ccccc2C(F)(F)F)C(=O)N(C2CCN(c4c(C)cccc4F)CC2)C3)C1 (stereo not shown) [Example 113] ?
## Result 2.04
